src = ChEMBL document CHEMBL1132957

Assignment: determine reported pKi for the given compounds.
Target: Gonadotropin-releasing hormone receptor (Rattus norvegicus)
Sequence (P30969 whole entry): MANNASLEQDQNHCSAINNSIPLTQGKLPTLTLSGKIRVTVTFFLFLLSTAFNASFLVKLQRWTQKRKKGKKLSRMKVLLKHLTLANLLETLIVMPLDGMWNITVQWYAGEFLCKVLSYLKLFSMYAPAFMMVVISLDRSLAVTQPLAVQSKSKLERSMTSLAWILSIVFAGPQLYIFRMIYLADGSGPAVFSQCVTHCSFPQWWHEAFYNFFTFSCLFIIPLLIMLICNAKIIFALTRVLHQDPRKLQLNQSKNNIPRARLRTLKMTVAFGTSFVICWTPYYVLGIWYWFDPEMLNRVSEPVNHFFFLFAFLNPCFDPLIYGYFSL
Assay: Competitive radioligand binding assay, in human HEK293 cells stably transfected with the rat Gonadotropin-releasing hormone receptor
Format: cell-based
Formally, pKi is defined as -log10 of the concentration c, with c in mol/L.

Note down pKi recorded for "CC(=O)N[C@H](Cc1ccc2ccccc2c1)C(=O)N[C@H](Cc1ccc(Cl)cc1)C(=O)N[C@H](Cc1cccnc1)C(=O)N[C@H]1CC(=O)NC[C@@H](C(N)=O)NC(=O)[C@@H]2CCCN2C(=O)[C@@H]2CCCNC(=O)[C@H](Cc3ccccc3)NC(=O)C[C@H](NC1=O)C(=O)N[C@H](CCCN=C(N)N)C(=O)N[C@@H](CC(C)C)C(=O)N2"
9.12

Note down pKi recorded for "CC(=O)N[C@H](Cc1ccc2ccccc2c1)C(=O)N[C@H](Cc1ccc(Cl)cc1)C(=O)N[C@H](Cc1cccnc1)C(=O)N[C@H]1CC(=O)NC[C@@H](C(N)=O)NC(=O)[C@@H]2CCCN2C(=O)[C@@H]2CCCCNC(=O)CC[C@H](NC1=O)C(=O)N[C@H](Cc1ccc3ccccc3c1)C(=O)N[C@@H](CC(C)C)C(=O)N2"
8.89

====

Molecular target: UniProtKB P30969
Experiment: Competitive radioligand binding assay, in human HEK293 cells stably transfected with the rat Gonadotropin-releasing hormone receptor
Type: cell-based
Positions of bridges follow the written chain, without caps; N, C: chain ends. Non-standard residues stand in square brackets, D forms with d. Residues, ends and D or L forms follow the SMILES beside them. dPhe(4-Cl) = N[C@H](Cc1ccc(Cl)cc1)C(=O)O; d2Nal = N[C@H](Cc1ccc2ccccc2c1)C(=O)O; d3Pal = N[C@H](Cc1cccnc1)C(=O)O; Dab = NCC[C@H](N)C(=O)O; Dap = NC[C@H](N)C(=O)O
observable: log10 of Ki (log10 of the value in nM)
The base-10 logarithm of Ki, taken with Ki in nM, is what appears here.

Note down log10 of Ki recorded for "CC(=O)N[C@H](Cc1ccc2ccccc2c1)C(=O)N[C@H](Cc1ccc(Cl)cc1)C(=O)N[C@H](Cc1c[nH]c2ccccc12)C(=O)N[C@H]1CC(=O)NC[C@@H](C(N)=O)NC(=O)[C@@H]2CCCN2C(=O)[C@@H]2CCCCNC(=O)CC[C@H](NC1=O)C(=O)N[C@H](Cc1ccc3ccccc3c1)C(=O)N[C@@H](CC(C)C)C(=O)N2"
0.08

Note down log10 of Ki recorded for "CC(=O)N[C@H](Cc1ccc2ccccc2c1)C(=O)N[C@H](Cc1ccc(Cl)cc1)C(=O)N[C@H](Cc1cccnc1)C(=O)N[C@H]1CC(=O)NC[C@@H](C(N)=O)NC(=O)[C@@H]2CCCN2C(=O)[C@@H]2CCNC(=O)CCNC(=O)C[C@H](NC1=O)C(=O)N[C@H](CCCN=C(N)N)C(=O)N[C@@H](CC(C)C)C(=O)N2"
-0.43

Note down log10 of Ki recorded for "CC(=O)N[C@H](Cc1ccc2ccccc2c1)C(=O)N[C@H](Cc1ccc(Cl)cc1)C(=O)N[C@H](Cc1cccnc1)C(=O)N[C@H]1CC(=O)NC[C@@H](C(N)=O)NC(=O)[C@@H]2CCCN2C(=O)[C@@H]2CCNC(=O)[C@H](Cc3ccccc3)NC(=O)CC[C@H](NC1=O)C(=O)N[C@H](CCCN=C(N)N)C(=O)N[C@@H](CC(C)C)C(=O)N2"
-0.64

Note down log10 of Ki recorded for "CC(=O)N[C@H](Cc1ccc2ccccc2c1)C(=O)N[C@H](Cc1ccc(Cl)cc1)C(=O)N[C@H](Cc1cccnc1)C(=O)N[C@H]1CC(=O)NC[C@@H](C(N)=O)NC(=O)[C@@H]2CCCN2C(=O)[C@@H]2CCNC(=O)[C@H](Cc3ccc(Cl)cc3)NC(=O)CC[C@H](NC1=O)C(=O)N[C@H](CCCN=C(N)N)C(=O)N[C@@H](CC(C)C)C(=O)N2"
-0.64

Note down log10 of Ki recorded for CC(=O)N[C@H](Cc1ccc2ccccc2c1)C(=O)N[C@H](Cc1ccc(Cl)cc1)C(=O)N[C@H](Cc1cccnc1)C(=O)N[C@H]1CC(=O)NC[C@@H](C(N)=O)NC(=O)[C@@H]2CCCN2C(=O)[C@@H]2CCNC(=O)CNC(=O)CC[C@H](NC1=O)C(=O)N[C@H](CCCN=C(N)N)C(=O)N[C@@H](CC(C)C)C(=O)N2 (Ac-[d2Nal][dPhe(4-Cl)][d3Pal]DE[dR]L[Dab]P[Dap]-NH2; lactam 4-10; linker 5-8 via G)
-0.80

Note down log10 of Ki recorded for "CC(=O)N[C@H](Cc1ccc2ccccc2c1)C(=O)N[C@H](Cc1ccc(Cl)cc1)C(=O)N[C@H](Cc1cccnc1)C(=O)N[C@H]1CC(=O)NC[C@@H](C(N)=O)NC(=O)[C@@H]2CCCN2C(=O)[C@@H]2CCCNC(=O)[C@H](Cc3ccccc3)NC(=O)CC[C@H](NC1=O)C(=O)N[C@H](CCCN=C(N)N)C(=O)N[C@@H](CC(C)C)C(=O)N2"
-0.57

Note down log10 of Ki recorded for "CC(=O)N[C@H](Cc1ccc2ccccc2c1)C(=O)N[C@H](Cc1ccc(Cl)cc1)C(=O)N[C@H](Cc1cccnc1)C(=O)N[C@H]1CC(=O)NC[C@@H](C(N)=O)NC(=O)[C@@H]2CCCN2C(=O)[C@@H]2CCNC(=O)[C@H](Cc3ccccc3)NC(=O)CC[C@H](NC1=O)C(=O)N[C@H](CCCNC(N)=O)C(=O)N[C@@H](CC(C)C)C(=O)N2"
-0.70

Note down log10 of Ki recorded for "CC(=O)N[C@H](Cc1ccc2ccccc2c1)C(=O)N[C@H](Cc1ccc(Cl)cc1)C(=O)N[C@H](Cc1cccnc1)C(=O)N[C@H]1CC(=O)NC[C@@H](C(N)=O)NC(=O)[C@@H]2CCCN2C(=O)[C@@H]2CCNC(=O)[C@@H](Cc3ccccc3)NC(=O)CC[C@H](NC1=O)C(=O)N[C@H](CCCN=C(N)N)C(=O)N[C@@H](CC(C)C)C(=O)N2"
2.08

Note down log10 of Ki recorded for "CC(=O)N[C@H](Cc1ccc2ccccc2c1)C(=O)N[C@H](Cc1ccc(Cl)cc1)C(=O)N[C@H](Cc1cccnc1)C(=O)N[C@H]1CC(=O)NC[C@@H](C(N)=O)NC(=O)[C@@H]2CCCN2C(=O)[C@@H]2CCNC(=O)CN(C)C(=O)CC[C@H](NC1=O)C(=O)N[C@H](CCCN=C(N)N)C(=O)N[C@@H](CC(C)C)C(=O)N2"
-0.70
